organism: Mus musculus; test: Analgesic activity in Swiss-Webster mouse measured for 20 mins by tail flick test; assay type: functional
recordedEndpoint: ED50

Some entries whose results are on file:
In [3]: df
Out[3]:
                                   compound  recordedvalue
0  Oc1ccc2c3c1O[C@H]1[C@@H](O)C=C[C@H]4[C@@H](C2)N(CCc2ccccc2)CC[C@@]341    1.7 µmol/kg
1  CC(C)(Cc1ccccc1)N1CC[C@]23c4c5ccc(O)c4O[C@H]2[C@@H](O)C=C[C@H]3[C@H]1C5  > 310 µmol/kg
2  CC(Cc1ccccc1)N1CC[C@]23c4c5ccc(O)c4O[C@H]2[C@@H](O)C=C[C@H]3[C@H]1C5 (stereo partly drawn)    4.3 µmol/kg
3  CCC(C)(C)N1CC[C@]23c4c5ccc(O)c4O[C@H]2[C@@H](O)C=C[C@H]3[C@H]1C5  > 580 µmol/kg
4  Oc1ccc2c3c1O[C@H]1[C@@H](O)C=C[C@H]4[C@@H](C2)N(C2C=CCCC2)CC[C@@]341 (stereo partly drawn)   79.7 µmol/kg

# batch size: 4; output ED50 per entry
1. Oc1ccc2c3c1O[C@H]1[C@@H](O)C=C[C@H]4[C@@H](C2)N(C2CCCC2)CC[C@@]341
2. CN1CC[C@]23c4c5ccc(O)c4O[C@H]2[C@@H](O)C=C[C@H]3[C@H]1C5
3. Oc1ccc2c3c1O[C@H]1[C@@H](O)C=C[C@H]4[C@@H](C2)N(C2CCCCC2)CC[C@@]341
4. C=C[C@H](C)N1CC[C@]23c4c5ccc(O)c4O[C@H]2[C@@H](O)C=C[C@H]3[C@H]1C5

Result ::
1: 124 µmol/kg; 2: 10.5 µmol/kg; 3: > 212 µmol/kg; 4: 105 µmol/kg

----------
Give IC50 for every item shown.
molecular target: Opioid receptor (Rattus norvegicus, UniProt P33533+P34975+P33535); experiment: Displacement of [3H]-naloxone from rat opioid receptor after 30 mins by liquid scintillation counting analysis in presence of NaCl; assay type: protein assay
Answers are plain numbers, in nM.

Some entries whose results are on file:
>>> df
                                   compound                            measuredtarget  unitannotation  recordedvalue
0  C=CCN1CC[C@]23c4c5ccc(O)c4O[C@H]2[C@@H](O)C=C[C@H]3[C@H]1C5  Opioid receptor (Rattus norvegicus, UniProt P33533+P34975+P33535)              nM              6
1  CCC(C)(C)N1CC[C@]23c4c5ccc(O)c4O[C@H]2[C@@H](O)C=C[C@H]3[C@H]1C5  Opioid receptor (Rattus norvegicus, UniProt P33533+P34975+P33535)              nM           1000
2  CCCN1CC[C@]23c4c5ccc(O)c4O[C@H]2[C@@H](O)C=C[C@H]3[C@H]1C5  Opioid receptor (Rattus norvegicus, UniProt P33533+P34975+P33535)              nM             14

Now look at this entry.
Query :: For the compound Oc1ccc2c3c1O[C@H]1[C@@H](O)C=C[C@H]4[C@@H](C2)N(C2C=CCCC2)CC[C@@]341 (some centres undefined) , what IC50 is on record?
Result :: 130

----------
Give log10 of IC50 for every item shown.
molecular target: Opioid receptor (Rattus norvegicus, UniProt P33533+P34975+P33535); experiment: Displacement of [3H]-naloxone from rat opioid receptor after 30 mins by liquid scintillation counting analysis in absence of NaCl; type: protein assay
In plain terms, each number is the log10 of measured IC50 in µM.

Some entries whose results are on file:
>>> print(df.to_string())
                                   compound  recordedvalue
0  CC[C@@H](C)N1CC[C@]23c4c5ccc(O)c4O[C@H]2[C@@H](O)C=C[C@H]3[C@H]1C5          -1.22
1  Oc1ccc2c3c1O[C@H]1[C@@H](O)C=C[C@H]4[C@@H](C2)N(C2CCCC2)CC[C@@]341          -1.47
2  C=C[C@@H](C)N1CC[C@]23c4c5ccc(O)c4O[C@H]2[C@@H](O)C=C[C@H]3[C@H]1C5          -1.57
3  CCC(CC)N1CC[C@]23c4c5ccc(O)c4O[C@H]2[C@@H](O)C=C[C@H]3[C@H]1C5          -1.11
4  C=CCN1CC[C@]23c4c5ccc(O)c4O[C@H]2[C@@H](O)C=C[C@H]3[C@H]1C5          -2.70

# batch size: 6; output log10 of IC50 per entry
1. CC(Cc1ccccc1)N1CC[C@]23c4c5ccc(O)c4O[C@H]2[C@@H](O)C=C[C@H]3[C@H]1C5 (some centres not stated)
2. CCCN1CC[C@]23c4c5ccc(O)c4O[C@H]2[C@@H](O)C=C[C@H]3[C@H]1C5
3. Oc1ccc2c3c1O[C@H]1[C@@H](O)C=C[C@H]4[C@@H](C2)N(C2CCCCCC2)CC[C@@]341
4. Oc1ccc2c3c1O[C@H]1[C@@H](O)C=C[C@H]4[C@@H](C2)N(CCc2ccccc2)CC[C@@]341
5. CC[C@H](C)N1CC[C@]23c4c5ccc(O)c4O[C@H]2[C@@H](O)C=C[C@H]3[C@H]1C5
6. CC(C)(Cc1ccccc1)N1CC[C@]23c4c5ccc(O)c4O[C@H]2[C@@H](O)C=C[C@H]3[C@H]1C5

Result ::
1: -2.47; 2: -1.85; 3: -1.72; 4: -2.38; 5: -1.55; 6: 0.00

# batch size: 5; output log10 of IC50 per entry
1. Oc1ccc2c3c1O[C@H]1[C@@H](O)C=C[C@H]4[C@@H](C2)N(C2CCCCC2)CC[C@@]341
2. Oc1ccc2c3c1O[C@H]1[C@@H](O)C=C[C@H]4[C@@H](C2)N(C2C=CCCC2)CC[C@@]341 (some centres not stated)
3. C=C[C@H](C)N1CC[C@]23c4c5ccc(O)c4O[C@H]2[C@@H](O)C=C[C@H]3[C@H]1C5
4. CCCC(C)N1CC[C@]23c4c5ccc(O)c4O[C@H]2[C@@H](O)C=C[C@H]3[C@H]1C5 (some centres not stated)
5. CCC(C)(C)N1CC[C@]23c4c5ccc(O)c4O[C@H]2[C@@H](O)C=C[C@H]3[C@H]1C5

Result ::
[-1.42, -1.29, -1.80, -1.43, 0.00]

----------
molecular target: Opioid receptor (Rattus norvegicus, UniProt P33533+P34975+P33535); experiment: Displacement of [3H]-naloxone from rat opioid receptor after 30 mins by liquid scintillation counting analysis in presence of NaCl; type: protein assay
Lab note: compare IC50 with 90 nM, writing Condition met if less and Condition not met if equal or more.

>>> print(df.to_string())
                                   compound              label
0  C=CC(C)(C)N1CC[C@]23c4c5ccc(O)c4O[C@H]2[C@@H](O)C=C[C@H]3[C@H]1C5  Condition not met
1  Oc1ccc2c3c1O[C@H]1[C@@H](O)C=C[C@H]4[C@@H](C2)N(C2CCCCCC2)CC[C@@]341  Condition not met
2  Oc1ccc2c3c1O[C@H]1[C@@H](O)C=C[C@H]4[C@@H](C2)N(C2CCCC2)CC[C@@]341      Condition met
3  CCC(CC)N1CC[C@]23c4c5ccc(O)c4O[C@H]2[C@@H](O)C=C[C@H]3[C@H]1C5  Condition not met

Query :: Say whether its IC50 is strictly beneath 90 nM. Entry: CC[C@H](C)N1CC[C@]23c4c5ccc(O)c4O[C@H]2[C@@H](O)C=C[C@H]3[C@H]1C5
Result :: Condition met

Query :: Say whether its IC50 is strictly beneath 90 nM. Entry: Oc1ccc2c3c1O[C@H]1[C@@H](O)C=C[C@H]4[C@@H](C2)N(CCc2ccccc2)CC[C@@]341
Result :: Condition not met

----------
species on record: Mus musculus; experiment: Analgesic activity in Swiss-Webster mouse assessed as reduction of […]-induced writhing; assay type: functional
Lab note: compare ED50 with 9 µmol/kg, writing 1 if less and -1 if equal or more.

Consider the following illustrative entries.
>>> df
                                   compound  label
0  CC(Cc1ccccc1)N1CC[C@]23c4c5ccc(O)c4O[C@H]2[C@@H](O)C=C[C@H]3[C@H]1C5 (some centres not stated)      1
1  Oc1ccc2c3c1O[C@H]1[C@@H](O)C=C[C@H]4[C@@H](C2)N(C2CCCCCC2)CC[C@@]341     -1
2  C=CC(C)(C)N1CC[C@]23c4c5ccc(O)c4O[C@H]2[C@@H](O)C=C[C@H]3[C@H]1C5     -1
3  CCCN1CC[C@]23c4c5ccc(O)c4O[C@H]2[C@@H](O)C=C[C@H]3[C@H]1C5     -1
4  Oc1ccc2c3c1O[C@H]1[C@@H](O)C=C[C@H]4[C@@H](C2)N(C2CCCC2)CC[C@@]341     -1

Query :: Say whether its ED50 is strictly beneath 9 µmol/kg. Entry: Oc1ccc2c3c1O[C@H]1[C@@H](O)C=C[C@H]4[C@@H](C2)N(C2CCCCC2)CC[C@@]341
Result :: -1

Query :: Say whether its ED50 is strictly beneath 9 µmol/kg. Entry: CC(C)(Cc1ccccc1)N1CC[C@]23c4c5ccc(O)c4O[C@H]2[C@@H](O)C=C[C@H]3[C@H]1C5
Result :: -1

Query :: Say whether its ED50 is strictly beneath 9 µmol/kg. Entry: Oc1ccc2c3c1O[C@H]1[C@@H](O)C=C[C@H]4[C@@H](C2)N(CCc2ccccc2)CC[C@@]341
Result :: 1

Query :: Say whether its ED50 is strictly beneath 9 µmol/kg. Entry: C=CCN1CC[C@]23c4c5ccc(O)c4O[C@H]2[C@@H](O)C=C[C@H]3[C@H]1C5
Result :: 1

Query :: Say whether its ED50 is strictly beneath 9 µmol/kg. Entry: CN1CC[C@]23c4c5ccc(O)c4O[C@H]2[C@@H](O)C=C[C@H]3[C@H]1C5
Result :: 1

Query :: Say whether its ED50 is strictly beneath 9 µmol/kg. Entry: CCC(C)(C)N1CC[C@]23c4c5ccc(O)c4O[C@H]2[C@@H](O)C=C[C@H]3[C@H]1C5
Result :: -1
